Provenance of the data: paper PMC8453901

Assay: Study 1 SAD part: plasma pharmacokinetics after single oral doses
Type: in vivo, human
Settings: male, human, plasma, oral; single 10 mg; arithmetic mean (CV%); read-out: C24h

>  <compound>
O=c1nc(OC[C@@H]2COCCO2)cc2n1CCc1cc(C#CC3CC3)ccc1-2 [GLPG1205]

>  <concentration at 24 h (ng/mL)>
39.8

$$$$

----------
Experiment: Study 2 part 2: pharmacokinetics with 250-mg loading dose then 50 mg once daily
Assay type: in vivo, human
Conditions: human, plasma, oral; cohort D 65-74 y, 250-mg loading dose then 50 mg once daily, day 14; mean (CV%), N = 7; read-out: t1/2,λz (converted)
Procedure: During study 2, GLPG1205 50 mg or matching placebo was administered as capsules in the morning 30 minutes after the start of a standard breakfast. Subjects were kept in‐house from the evening of day –1 to ≈26 hours after the first dose (day 2), and from the evening of day 13 until day 15. […] GLPG1205 plasma concentrations were determined using a validated liquid chromatography with tandem mass spectrometry method. […] The limit of quantification of the assay in the plasma samples was set at 1 ng/mL. […]

>  <compound>
O=c1nc(OC[C@@H]2COCCO2)cc2n1CCc1cc(C#CC3CC3)ccc1-2 [GLPG1205]

>  <half-life / h>
55.4

$$$$

----------
Test: Study 1 SAD part: plasma pharmacokinetics after single oral doses
Type: in vivo, human
Details: male, human, plasma, oral; single 10 mg; arithmetic mean (CV%), N = 3
reported_metric: AUC(0-inf) (ng·h/mL)

>  <smiles>
O=c1nc(OC[C@@H]2COCCO2)cc2n1CCc1cc(C#CC3CC3)ccc1-2

>  <reported_result>
3310

$$$$

----------
Test: Study 1 SAD part: plasma pharmacokinetics after single oral doses
Assay type: in vivo, human
Settings: male, human, plasma, oral; single 30 mg; arithmetic mean (CV%), N = 4
Description: GLPG1205 or matching placebo were administered as an oral nanosuspension in the morning in a fed condition as an outpatient. […] GLPG1205 plasma concentrations were determined using a validated liquid chromatography with tandem mass spectrometry method. […] A QTRAP6500, QTRAP4000, or API4000 mass spectrometer (AB Sciex, Nieuwerkerk aan den Ijssel, The Netherlands) equipped with a TurboIonSpray probe operated in the multiple reaction monitoring in positive mode was used for quantification. […]

>  <smiles>
O=c1nc(OC[C@@H]2COCCO2)cc2n1CCc1cc(C#CC3CC3)ccc1-2

>  <AUC(0-inf) [ng·h/mL]>
11500

$$$$

----------
Experiment: Study 1 SAD part: plasma pharmacokinetics after single oral doses
Format: in vivo, human
Conditions: male, human, plasma, oral; single 30 mg; arithmetic mean (CV%)
reported_metric: Cmax

>  <smiles>
O=c1nc(OC[C@@H]2COCCO2)cc2n1CCc1cc(C#CC3CC3)ccc1-2

>  <reported_result>
284 ng/mL

$$$$

----------
Experiment: Study 2 part 1: effect of aging on pharmacokinetics, 50 mg once daily for 14 days
Assay type: in vivo, human
Conditions: male, human, plasma, oral, 50 mg, 50 mg once daily, cohort B ≥75 y, day 14; median (minimum-maximum)

>  <compound>
O=c1nc(OC[C@@H]2COCCO2)cc2n1CCc1cc(C#CC3CC3)ccc1-2 [GLPG1205]

>  <endpoint_unit>
h

>  <Tmax>
3

$$$$

----------
Assay: Study 2 part 1: effect of aging on pharmacokinetics, 50 mg once daily for 14 days
Assay type: in vivo, human
Details: male, human, plasma, oral, 50 mg, 50 mg once daily, cohort A 65-74 y, day 14; mean (CV%); read-out: C24h

>  <smiles>
O=c1nc(OC[C@@H]2COCCO2)cc2n1CCc1cc(C#CC3CC3)ccc1-2

>  <concentration at 24 h (ng/mL)>
2440

$$$$

----------
Assay: Study 1 SAD part: plasma pharmacokinetics after single oral doses
Format: in vivo, human
Conditions: male, human, plasma, oral; single 400 mg; arithmetic mean (CV%); read-out: AUC0‐24h

>  <smiles>
O=c1nc(OC[C@@H]2COCCO2)cc2n1CCc1cc(C#CC3CC3)ccc1-2

>  <endpoint_unit>
ng·h/mL

>  <AUC>
58000

$$$$

----------
Assay: Study 1 MAD part: plasma and urine pharmacokinetics, once daily for 14 days
Type: in vivo, human
Settings: male, human, plasma, oral, 50 mg, 50 mg once daily, day 14; median (minimum-maximum)

>  <molecule>
O=c1nc(OC[C@@H]2COCCO2)cc2n1CCc1cc(C#CC3CC3)ccc1-2 [GLPG1205]

>  <Tmax [h]>
4

$$$$

----------
Test: Study 1 SAD part: plasma pharmacokinetics after single oral doses
Assay type: in vivo, human
Conditions: male, human, plasma, oral; single 90 mg; median (minimum-maximum); read-out: tmax
reported_metric: Tmax (h)

>  <molecule>
O=c1nc(OC[C@@H]2COCCO2)cc2n1CCc1cc(C#CC3CC3)ccc1-2 [GLPG1205]

>  <reported_metric>
Tmax

>  <reported_result>
4

$$$$

----------
Experiment: Study 1 MAD part: plasma and urine pharmacokinetics, once daily for 14 days
Type: in vivo, human
Settings: male, human, plasma, oral, 200 mg, 200 mg once daily, day 1; median (minimum-maximum)

>  <smiles>
O=c1nc(OC[C@@H]2COCCO2)cc2n1CCc1cc(C#CC3CC3)ccc1-2

>  <endpoint_unit>
h

>  <Tmax>
3

$$$$

----------
Experiment: Study 1 MAD part: plasma and urine pharmacokinetics, once daily for 14 days
Assay type: in vivo, human
Conditions: male, human, plasma, oral, 100 mg, 100 mg once daily, day 1; mean (CV%)
reported_metric: Cmax

>  <smiles>
O=c1nc(OC[C@@H]2COCCO2)cc2n1CCc1cc(C#CC3CC3)ccc1-2

>  <reported_result>
875 ng/mL

$$$$

----------
Experiment: Study 1 SAD part: plasma pharmacokinetics after single oral doses
Format: in vivo, human
Details: male, human, plasma, oral; single 800 mg; arithmetic mean, N = 2; read-out: t1/2,λz (converted)

>  <smiles>
O=c1nc(OC[C@@H]2COCCO2)cc2n1CCc1cc(C#CC3CC3)ccc1-2

>  <half-life (h)>
140

$$$$

----------
Test: Study 2 part 2: pharmacokinetics with 250-mg loading dose then 50 mg once daily
Type: in vivo, human
Conditions: human, plasma, oral; cohort D 65-74 y, 250-mg loading dose then 50 mg once daily, day 14; mean (CV%); read-out: C24h
Method: During study 2, GLPG1205 50 mg or matching placebo was administered as capsules in the morning 30 minutes after the start of a standard breakfast. Subjects were kept in‐house from the evening of day –1 to ≈26 hours after the first dose (day 2), and from the evening of day 13 until day 15. […] GLPG1205 plasma concentrations were determined using a validated liquid chromatography with tandem mass spectrometry method. […] The limit of quantification of the assay in the plasma samples was set at 1 ng/mL. […]

>  <smiles>
O=c1nc(OC[C@@H]2COCCO2)cc2n1CCc1cc(C#CC3CC3)ccc1-2

>  <endpoint_unit>
ng/mL

>  <concentration at 24 h>
2360

$$$$

----------
Assay: Study 1 MAD part: plasma and urine pharmacokinetics, once daily for 14 days
Type: in vivo, human
Conditions: male, human, plasma, oral, once-daily dosing for 14 days; read-out: t1/2,λz range
reported_metric: half-life

>  <smiles>
O=c1nc(OC[C@@H]2COCCO2)cc2n1CCc1cc(C#CC3CC3)ccc1-2

>  <reported_result>
76.7 to 141 h

$$$$

----------
Assay: Study 2 part 1: effect of aging on pharmacokinetics, 50 mg once daily for 14 days
Assay type: in vivo, human
Settings: male, human, plasma, oral, 50 mg, 50 mg once daily, cohort B ≥75 y, day 1; mean (CV%); read-out: AUC0–24h

>  <smiles>
O=c1nc(OC[C@@H]2COCCO2)cc2n1CCc1cc(C#CC3CC3)ccc1-2

>  <AUC(0-t) / ng·h/mL>
6900

$$$$

----------
Assay: Study 2 part 1: effect of aging on pharmacokinetics, 50 mg once daily for 14 days
Assay type: in vivo, human
Conditions: male, human, plasma, oral, 50 mg, 50 mg once daily, cohort A 65-74 y, day 14; mean (CV%); read-out: t1/2,λz (converted)

>  <smiles>
O=c1nc(OC[C@@H]2COCCO2)cc2n1CCc1cc(C#CC3CC3)ccc1-2

>  <half-life / h>
71.9

$$$$

----------
Test: Study 2 part 1: effect of aging on pharmacokinetics, 50 mg once daily for 14 days
Type: in vivo, human
Conditions: male, human, plasma, oral, 50 mg, 50 mg once daily, cohort C 18-50 y, day 1; mean (CV%); read-out: AUC0–24h
reported_metric: AUC(0-t)

>  <smiles>
O=c1nc(OC[C@@H]2COCCO2)cc2n1CCc1cc(C#CC3CC3)ccc1-2

>  <reported_result>
7740 ng·h/mL

$$$$

----------
Experiment: Study 1 MAD part: plasma and urine pharmacokinetics, once daily for 14 days
Format: in vivo, human
Settings: male, human, plasma, oral, 200 mg, 200 mg once daily, day 1; mean (CV%)

>  <smiles>
O=c1nc(OC[C@@H]2COCCO2)cc2n1CCc1cc(C#CC3CC3)ccc1-2

>  <Cmax / ng/mL>
2450

$$$$
